B1: glmS ribozyme (parent)
chain: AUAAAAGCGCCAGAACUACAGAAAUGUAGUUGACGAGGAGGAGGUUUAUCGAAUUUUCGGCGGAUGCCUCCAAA

# Variants of: B1
# Assay details: self-cleavage kobs at 640 uM GlcN6P; higher = faster cleavage; RNA array
# Particulars: with glucosamine-6-phosphate
This sample holds only a part of the variants without activity.
Property label: self-cleavage kobs at 640 uM GlcN6P

Solved entries:
INSERT INTO assay_data (residue_codes, result) VALUES
  ('AUAAAAGCGCGUGAACUACAGAAAUGUAGUUGACGAGCAGGUGGUUUAUCGAAUUUUCGGCGGAUGCCUCCAAA [C11G A12U G38C A42U]', '< 1e-05 s⁻¹'),
  ('AUAAAAGCGACAGAACUACAGAAAUGUAGUUGACGAGGAGGAGGUUUAUCCAAUUUUCGGCGGAUGCCUCCAAA [C10A G51C]', '< 1e-05 s⁻¹'),
  ('AUAAAAGCGCCAGAACUACAGAAAUGUAGUUGGCGAAGCGGAGGUUUAUCGAAUUUUCGGCGCAUGCGUCCAAA [A33G G37A A39C G63C C68G]', '< 1e-05 s⁻¹'),
  ('AUAAAAGCGCCAGAACUACAGAAAUGUAGUUUACGAGGAGGAGGUUUAUCGAAUUUUCGGCGAAUGCCUCCAAA [G32U G63A]', '< 1e-05 s⁻¹'),
  ('AUAAAAGCGACAGAACUACAGAAAUGUAGUUGGCGUCGAGGAGGUUUAUCGAAUUUUCGGGGGAUGCCUCCAAA [C10A A33G A36U G37C C61G]', '< 1e-05 s⁻¹'),
  ('AUAAAAGCGCCAGAACUACAGAAAUGUAGUUGACGAGGAGGAGGUUUAUCGAAUUUUCGGCUAAUGCCUCCAAA [G62U G63A]', '< 1e-05 s⁻¹'),
  ('AUAAAAGCGCCAGAACUACAGAAAUGUAGUUGACGAGGAAGAGGUUUAUCGAAUUUUCGGAGGAUGCCUCCAAA [G40A C61A]', '< 1e-05 s⁻¹'),
  ('AUAAAAACGCCAGAACUACAGAAAUGUAGUUGACGAGGAGGAGGUUUAUCGAAUUUUCGGCGGACGCCUCCAAA [G7A U65C]', '< 1e-05 s⁻¹');

### Prompt Supply measured self-cleavage kobs at 640 uM GlcN6P of AUAAAAGCGCCAGAACUACAGAAAUGUAGUUUACGAGGAGGAGGUUUAUCGAAUUUUCGGGGGAUGCCUCCAAA [G32U C61G] in your reply.
### Response < 1e-05 s⁻¹

### Prompt Note self-cleavage kobs at 640 uM GlcN6P for the variant shown: AUAAAAGCGCUAGAACUACAGAAAUGUAGUUGACGAGGAGGAGGUUUAUCGAAUUUUCGACGGAUGCCUCCAAA [C11U G60A]
### Response < 1e-05 s⁻¹

### Prompt State its self-cleavage kobs at 640 uM GlcN6P for this variant: AUAAAAGCGCCAGAACUACAGAAAUGUAGUUGACGAGAAGGAGGUUUAUCGCAUUUUCGGCGGAUGCCUCCAAA [G38A A52C]
### Response < 1e-05 s⁻¹

### Prompt Tell me self-cleavage kobs at 640 uM GlcN6P reported for AUAAAAGCGCCAGAACUACAGAAAUGUAAUUGACGAGGAGGCGGUUUAUCGAAUUUUCGGCGGAUGCCUCCAAA [G29A A42C]
### Response < 1e-05 s⁻¹
